All values here come from patent US20240148707A1.

test name: Phase I drug-drug interaction study with sevelamer carbonate
Format: in vivo, human
recorded conditions: human, plasma, oral, 300 mg, vadadustat 300 mg alone, immediately after breakfast; mean ± SD; read-out: Volume of distribution (Vc)

- item smiles: "O=C(O)CNC(=O)c1ncc(-c2cccc(Cl)c2)cc1O"
  Vd (L): 11.5

* * *

test name: Phase I drug-drug interaction study with sevelamer carbonate
Type: in vivo, human
recorded conditions: human, plasma, oral, vadadustat 300 mg fasting, 1 hour prior to sevelamer carbonate 1600 mg; mean ± SD; read-out: Clearance (ClB) (converted)

- item smiles: "O=C(O)CNC(=O)c1ncc(-c2cccc(Cl)c2)cc1O"
  clearance (mL/min): 35.7

* * *

test name: Phase 1 drug-drug interaction study, vadadustat as perpetrator with digoxin (Arm 1)
Assay type: in vivo, human
recorded conditions: both sexes, human, plasma; digoxin 0.5 mg alone, single oral dose, fasted; read-out: AUClast, geometric LSM, Treatment D
observation type: AUC(0-t)

- compound: "C[C@H]1O[C@@H](O[C@H]2[C@@H](O)C[C@H](O[C@H]3[C@@H](O)C[C@H](O[C@H]4CC[C@@]5(C)[C@H](CC[C@@H]6[C@@H]5C[C@@H](O)[C@]5(C)[C@@H](C7=CC(=O)OC7)CC[C@]65O)C4)O[C@@H]3C)O[C@@H]2C)C[C@H](O)[C@@H]1O [digoxin]"
  recorded value: "34.6 ng·h/mL"

* * *

test name: Phase I drug-drug interaction study with sevelamer carbonate
Format: in vivo, human
recorded conditions: human, plasma, oral, vadadustat 300 mg 2 hours after sevelamer carbonate 1600 mg with breakfast; median (minimum, maximum)

- item smiles: "O=C(O)CNC(=O)c1ncc(-c2cccc(Cl)c2)cc1O"
  Tmax, h: 2.99

* * *

test name: Phase 1 drug-drug interaction study, vadadustat as perpetrator with adefovir (Arm 2)
Assay type: in vivo, human
recorded conditions: both sexes, human, plasma, oral; adefovir 10 mg single dose with vadadustat 600 mg QD (Day 7); read-out: Cmax, geometric LSM, Treatment V + A
observation type: Cmax (ng/mL)

- item smiles: "Nc1ncnc2c1ncn2CCOCP(=O)(O)O"
  observation type: "Cmax"
  recorded value: 17.1

* * *

test name: Phase I drug-drug interaction study with cyclosporine (Part 1, Arm 1)
Assay type: in vivo, human
recorded conditions: both sexes, human, plasma; vadadustat 300 mg alone, single oral dose, fasted; read-out: Cmax, geometric LSM, Treatment V

- item smiles: "O=C(O)CNC(=O)c1ncc(-c2cccc(Cl)c2)cc1O"
  Cmax, ng/mL: 45400

* * *

test name: Phase I drug-drug interaction study with sevelamer carbonate
Type: in vivo, human
recorded conditions: human, plasma, oral, vadadustat 300 mg 2 hours after sevelamer carbonate 1600 mg with breakfast; mean ± SD; read-out: AUC0-∞
observation type: AUC(0-inf) (µg·h/mL)

- item smiles: "O=C(O)CNC(=O)c1ncc(-c2cccc(Cl)c2)cc1O"
  recorded value: 154

* * *

test name: Phase I drug-drug interaction study with sevelamer carbonate
Format: in vivo, human
recorded conditions: human, plasma, oral, 300 mg, vadadustat 300 mg alone, immediately after breakfast; mean ± SD

- compound: "O=C(O)CNC(=O)c1ncc(-c2cccc(Cl)c2)cc1O [Compound 1]"
  unit name: "µg·h/mL"
  AUC(0-t): 185

* * *

test name: Phase 1 drug-drug interaction study, vadadustat as perpetrator with digoxin (Arm 1)
Format: in vivo, human
recorded conditions: both sexes, human, plasma; digoxin 0.5 mg alone, single oral dose, fasted; read-out: AUCinf, geometric LSM, Treatment D
observation type: AUC(0-inf) (ng·h/mL)

- item smiles: "C[C@H]1O[C@@H](O[C@H]2[C@@H](O)C[C@H](O[C@H]3[C@@H](O)C[C@H](O[C@H]4CC[C@@]5(C)[C@H](CC[C@@H]6[C@@H]5C[C@@H](O)[C@]5(C)[C@@H](C7=CC(=O)OC7)CC[C@]65O)C4)O[C@@H]3C)O[C@@H]2C)C[C@H](O)[C@@H]1O"
  unit name: "ng·h/mL"
  recorded value: 36.3
